target: human EAAT2 (Homo sapiens); construct: expressed in transfected cells; assay: [3H]-D-aspartate uptake assay at HEK293 cells stably expressing human EAAT2; assay type: cell-based; conditions: [3H]-D-aspartate uptake, HEK293 cells stably expressing human EAAT2; analogs 1 and 2.1-2.40 (Table 1); read-out: EAAT2 IC50
Sequence (P43004 whole entry): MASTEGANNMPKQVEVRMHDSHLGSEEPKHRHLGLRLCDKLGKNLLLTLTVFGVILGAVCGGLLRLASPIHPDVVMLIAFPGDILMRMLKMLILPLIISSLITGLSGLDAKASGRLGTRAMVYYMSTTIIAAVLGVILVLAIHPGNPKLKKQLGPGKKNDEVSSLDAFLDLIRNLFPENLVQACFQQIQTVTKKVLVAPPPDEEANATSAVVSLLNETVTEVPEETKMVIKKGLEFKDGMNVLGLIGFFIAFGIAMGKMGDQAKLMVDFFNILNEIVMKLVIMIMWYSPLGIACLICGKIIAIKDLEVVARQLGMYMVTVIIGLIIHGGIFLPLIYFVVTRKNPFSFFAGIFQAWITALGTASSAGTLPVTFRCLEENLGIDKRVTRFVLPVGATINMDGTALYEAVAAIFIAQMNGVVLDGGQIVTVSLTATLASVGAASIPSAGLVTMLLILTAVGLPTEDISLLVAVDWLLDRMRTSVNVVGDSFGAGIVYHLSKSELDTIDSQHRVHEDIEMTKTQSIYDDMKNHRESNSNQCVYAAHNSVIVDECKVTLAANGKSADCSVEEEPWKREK
readout label: IC50

Example entries and their recorded answers appear below.
| compound | IC50 |
| --- | --- |
| CC(=O)N1CCN(c2cccc(C(F)(F)F)c2)CC1 | > 100 µM |
| O=C(OCc1ccccc1)N1CCN(c2cccc(C(F)(F)F)c2)CC1 | > 300 µM |
| O=C(C1CCCCC1)N1CCN(c2cccc(C(F)(F)F)c2)CC1 | ~100 µM |

According to the records, this compound `CC(C)(C)CC(=O)N1CCN(c2cccc(C(F)(F)F)c2)CC1` displays IC50 of > 300 µM

According to the records, this compound `O=S(=O)(c1ccccc1)N1CCN(c2cccc(C(F)(F)F)c2)CC1` displays IC50 of > 300 µM

According to the records, this compound `CC(C)CC(=O)N1CCN(c2cccc(C(F)(F)F)c2)CC1` displays IC50 of > 300 µM

According to the records, this compound `CC(C)CCC(=O)N1CCN(c2cccc(C(F)(F)F)c2)CC1` displays IC50 of > 300 µM

According to the records, this compound O=C(C1CC2CCC1C2)N1CCN(c2cccc(C(F)(F)F)c2)CC1 (mixture of isomers) [(±)-exo-1] displays IC50 of 40 µM

According to the records, this compound FC(F)(F)c1cccc(N2CCN(CC3CC4CCC3C4)CC2)c1 (mixture of isomers) [(±)-endo-exo-2.34] displays IC50 of > 300 µM

----------
biological target: human EAAT1 (Homo sapiens, UniProt P43003); construct: expressed in transfected cells; assay: [3H]-D-aspartate uptake assay at HEK293 cells stably expressing human EAAT1; type: cell-based; details: [3H]-D-aspartate uptake, HEK293 cells stably expressing human EAAT1; analogs 1 and 2.1-2.40 (Table 1); read-out: EAAT1 IC50
Sequence (P43003 whole entry): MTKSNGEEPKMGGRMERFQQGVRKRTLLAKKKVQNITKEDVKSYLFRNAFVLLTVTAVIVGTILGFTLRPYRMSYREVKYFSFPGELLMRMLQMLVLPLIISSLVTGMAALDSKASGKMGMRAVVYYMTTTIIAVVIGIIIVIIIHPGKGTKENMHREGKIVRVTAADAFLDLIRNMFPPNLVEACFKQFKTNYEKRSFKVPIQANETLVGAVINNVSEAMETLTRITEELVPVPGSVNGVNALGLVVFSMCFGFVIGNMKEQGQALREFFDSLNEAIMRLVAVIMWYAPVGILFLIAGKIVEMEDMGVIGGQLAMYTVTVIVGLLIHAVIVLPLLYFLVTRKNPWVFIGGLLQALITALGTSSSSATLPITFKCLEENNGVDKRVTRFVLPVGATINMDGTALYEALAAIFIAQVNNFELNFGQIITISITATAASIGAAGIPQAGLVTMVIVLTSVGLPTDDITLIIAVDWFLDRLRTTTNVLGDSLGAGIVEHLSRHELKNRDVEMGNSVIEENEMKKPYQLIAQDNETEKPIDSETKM
pIC50: −log10 of the molar value.
In this section we review reported pIC50 values for a set of molecules.

Example entries and their recorded answers appear below.
| molecule | target system | pIC50 |
| --- | --- | --- |
| O=C(C1CC1)N1CCN(c2cccc(C(F)(F)F)c2)CC1 | human EAAT1 (Homo sapiens, UniProt P43003) | < 3.52 |
| O=C(OCc1ccccc1)N1CCN(c2cccc(C(F)(F)F)c2)CC1 | human EAAT1 (Homo sapiens, UniProt P43003) | < 3.00 |
| O=C(C1CCCCC1)N1CCN(c2cccc(C(F)(F)F)c2)CC1 | human EAAT1 (Homo sapiens, UniProt P43003) | ~4.00 |
| CC(C)CC(=O)N1CCN(c2cccc(C(F)(F)F)c2)CC1 | human EAAT1 (Homo sapiens, UniProt P43003) | < 3.52 |
| O=C(c1ccc2c(c1)OCO2)N1CCN(c2cccc(C(F)(F)F)c2)CC1 | human EAAT1 (Homo sapiens, UniProt P43003) | < 4.00 |

According to the records, this molecule FC(F)(F)c1cccc(N2CCN(CC3CC4CCC3C4)CC2)c1 (mixture of isomers) [(±)-endo-exo-2.34] displays pIC50 of < 3.52

According to the records, this molecule `O=S(=O)(c1ccccc1)N1CCN(c2cccc(C(F)(F)F)c2)CC1` displays pIC50 of < 3.00

According to the records, this molecule O=C(C1CC2CCC1CC2)N1CCN(c2cccc(C(F)(F)F)c2)CC1 (stereo not shown) displays pIC50 of < 3.52

According to the records, this molecule `CC(C)CCC(=O)N1CCN(c2cccc(C(F)(F)F)c2)CC1` displays pIC50 of < 3.52

According to the records, this molecule `CC(C)(C)CC(=O)N1CCN(c2cccc(C(F)(F)F)c2)CC1` displays pIC50 of < 3.52
